Tested on: CAKI-1
Assay: Antitumor activity against human Caki1 cells assessed as cell growth at 10 uM after 48 hrs by sulforhodamine B assay
Type: functional
Conditions: CAKI-1, 48 h, read-out: Activity
Assay Readout: growth at 10 µM (%)
Write the answer as a number in %, unit excluded.

// worked examples, growth at 10 µM included
CN1C/C(=C\c2ccc(-c3cccs3)cc2)C(=O)[C@]2(C1)[C@@H](c1ccc(-c3cccs3)cc1)CN(C)[C@@]21C(=O)N(C)c2ccccc21 : 57.2
CN1C/C(=C\c2ccc(Cl)cc2)C(=O)[C@]2(C1)[C@@H](c1ccc(Cl)cc1)CN(C)[C@@]21C(=O)N(C)c2ccccc21 : 56.6
CN1C/C(=C\c2ccc(Cl)cc2)C(=O)[C@]2(C1)[C@@H](c1ccc(Cl)cc1)CN(C)[C@@]21C(=O)Nc2ccccc21 : 45.8

Now look at this entry.
**Q:** Bench note: what growth at 10 µM did COc1ccc(/C=C2\CN(C)C[C@@]3(C2=O)[C@@H](c2ccccc2)CN(C)[C@@]32C(=O)Nc3ccccc32)cc1 show?
**A:** 54.3

====

Test system: OVCAR-4
Assay: Antitumor activity against human OVCAR4 cells assessed as cell growth at 10 uM after 48 hrs by sulforhodamine B assay
Type: functional
Conditions: OVCAR-4, 48 h, read-out: Activity
Assay Readout: growth at 10 µM
State the value with its unit after it.

// worked examples, growth at 10 µM included
CN1C/C(=C\c2ccc(Cl)cc2)C(=O)[C@]2(C1)[C@@H](c1ccc(Cl)cc1)CN(C)[C@@]21C(=O)Nc2ccccc21 : 49.6%
CN1C/C(=C\c2ccc(Cl)cc2)C(=O)[C@]2(C1)[C@@H](c1ccc(Cl)cc1)CN(C)[C@@]21C(=O)N(C)c2ccccc21 : 43.1%
COc1ccc(/C=C2\CN(C)C[C@@]3(C2=O)[C@@H](c2ccccc2)CN(C)[C@@]32C(=O)Nc3ccccc32)cc1 : 52.7%

Now look at this entry.
**Q:** Bench note: what growth at 10 µM did CN1C/C(=C\c2ccc(-c3cccs3)cc2)C(=O)[C@]2(C1)[C@@H](c1ccc(-c3cccs3)cc1)CN(C)[C@@]21C(=O)N(C)c2ccccc21 show?
**A:** 37.3%

====

Test system: Rattus norvegicus
Assay: Antiinflammatory activity in Wister albino rat assessed as inhibition of carrageenan-induced paw oedema at 50 mg/kg, ip administered 1 hr before carrageenan challenge measured after 1 hr of induction of inflammation relative to control
Format: functional
Details: route intraperitoneal
Assay Readout: inhibition in vivo at 50 mg/kg (%)
Write the answer as a number in %, unit excluded.

CN1C/C(=C\c2ccc(F)cc2)C(=O)[C@]2(C1)[C@@H](c1ccc(F)cc1)CN(C)[C@@]21C(=O)N(C)c2ccccc21 : 75.8
CN1C/C(=C\c2ccc(Br)cc2)C(=O)[C@]2(C1)[C@@H](c1ccc(Br)cc1)CN(C)[C@@]21C(=O)N(C)c2ccccc21 : 53.5

**Q:** Bench note: what inhibition in vivo at 50 mg/kg did CN1C/C(=C\c2ccc(Br)cc2)C(=O)[C@]2(C1)[C@@H](c1ccc(Br)cc1)CN(C)[C@@]21C(=O)Nc2ccccc21 show?
**A:** 77.7

**Q:** Bench note: what inhibition in vivo at 50 mg/kg did CN1C/C(=C\c2ccc(Cl)cc2)C(=O)[C@]2(C1)[C@@H](c1ccc(Cl)cc1)CN(C)[C@@]21C(=O)N(C)c2ccccc21 show?
**A:** 82.3

**Q:** Bench note: what inhibition in vivo at 50 mg/kg did Cc1ccc(/C=C2\CN(C)C[C@@]3(C2=O)[C@@H](c2ccc(C)cc2)CN(C)[C@@]32C(=O)Nc3ccccc32)cc1 show?
**A:** 69.2

**Q:** Bench note: what inhibition in vivo at 50 mg/kg did CN1C/C(=C\c2ccccc2)C(=O)[C@]2(C1)[C@@H](c1ccccc1)CN(C)[C@@]21C(=O)Nc2ccccc21 show?
**A:** 77

**Q:** Bench note: what inhibition in vivo at 50 mg/kg did CN1C/C(=C\c2ccc(-c3cccs3)cc2)C(=O)[C@]2(C1)[C@@H](c1ccc(-c3cccs3)cc1)CN(C)[C@@]21C(=O)Nc2ccccc21 show?
**A:** 68

**Q:** Bench note: what inhibition in vivo at 50 mg/kg did Cc1ccc(/C=C2\CN(C)C[C@@]3(C2=O)[C@@H](c2ccc(C)cc2)CN(C)[C@@]32C(=O)N(C)c3ccccc32)cc1 show?
**A:** 53.5

**Q:** Bench note: what inhibition in vivo at 50 mg/kg did CN1C/C(=C\c2ccc(F)cc2)C(=O)[C@]2(C1)[C@@H](c1ccc(F)cc1)CN(C)[C@@]21C(=O)Nc2ccccc21 show?
**A:** 80.1
